Measured values drawn from patent US5760176A for this set.

tested on: MG-63 cells; settings: Table III; 1.5 μg/well
Measured percentage of maximum binding (cell attachment) values are reported for all entries that follow.

Some substances with recorded percentage of maximum binding (cell attachment):
substance	reported.measurement
nMeGRGDSPASSKS3 RF6 RNH2	70 percentage of maximum binding
nMEGRGDSPASSKRF6 RNH2	50 percentage of maximum binding
nMeGRGDSPASSKRL5 RNH2	34 percentage of maximum binding

Attention now turns to another entry.
In plain terms, nMeG(dR)GDSPASSKRF4 RNH2 [nMeGRGDSPASSKRF4 RNH2] has a documented percentage of maximum binding (cell attachment) of 34 percentage of maximum binding

---

test system: MG-63 cells; conditions: Table III; 25 μg/well
Measured percentage of maximum binding (cell attachment) values are reported for all entries that follow.

Some substances with recorded percentage of maximum binding (cell attachment):
substance	reported.measurement
nMeGRGDSPASSKS3 RF6 RNH2	60 percentage of maximum binding
nMEGRGDSPASSKRF6 RNH2	56 percentage of maximum binding
nMeG(dR)GDSPASSKRF4 RNH2 [nMeGRGDSPASSKRF4 RNH2]	60 percentage of maximum binding

Attention now turns to another entry.
Note to self: percentage of maximum binding (cell attachment) of nMeGRGDSPASSKRL5 RNH2 with MG-63 cells was 58 percentage of maximum binding
